study system: Cellular tumor antigen p53 (Homo sapiens)
assay explanation: Primary qHTS for small molecule compounds that upregulate eGFP-tagged delta133p53alpha (in N-terminal) cells. (AID 2060322);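 note: cells pre-induced with doxycycline then dosed without doxycycline; series mostly up to about 56 µM; 0% = DMSO vehicle and 100% = reference activator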
run parameters: NCI-H358 eGFP-delta133p53alpha fluorescence, 24 h; stronger effect = higher value
Inconclusive results are not listed.

{"columns": ["molecule", "study system", "activation [%]"],
 "data": [
  ["CC(O)(C#Cc1ccc2c(c1)N(c1nc(N)ncc1Cl)CC2)c1nccs1 (stereo unspecified)", "Cellular tumor antigen p53 (Homo sapiens)", -1.22],
  ["Cc1cc(NC(=O)NCCN2CCC(O)(Cc3ccccc3)CC2)c2ccccc2n1", "Cellular tumor antigen p53 (Homo sapiens)", 3.34],
  ["Cc1cc2nc3c(=O)[nH]c(=O)nc-3n(C[C@H](O)[C@H](O)[C@H](O)CO)c2cc1C", "Cellular tumor antigen p53 (Homo sapiens)", -36.8],
  ["CC(=O)O[C@H]1C[C@@](O)(C(C)C)C2[C@@H](OC(=O)c3ccc(O)cc3)C[C@@]3(C)O[C@H]3C[C@]21C (stereo partly specified)", "Cellular tumor antigen p53 (Homo sapiens)", -6.11],
  ["CCNC1(C(N)=O)CN(c2nc(C)nc3c(-c4ccc(Cl)cc4)c(-c4ccccc4Cl)nn23)C1", "Cellular tumor antigen p53 (Homo sapiens)", -0.333],
  ["C[C@@H]1[C@H]2[C@H](O[C@@H]3O[C@H](CO)[C@@H](O)[C@H](O)[C@H]3O)OC=C(C(=O)O)[C@H]2C[C@@H]1OC(=O)/C=C/c1ccc(O)cc1", "Cellular tumor antigen p53 (Homo sapiens)", 18.8],
  ["CCC(NC(=O)CC(NC(=O)C(CO)NC(=O)C(CC)NC(=O)c1ccc[nH]1)c1ccccc1)C(=O)O (stereo unspecified)", "Cellular tumor antigen p53 (Homo sapiens)", 23.7],
  ["CC#CC(=O)N1CCC[C@H]1c1nc(-c2ccc(C(=O)Nc3ccccn3)cc2)c2c(N)nccn12", "Cellular tumor antigen p53 (Homo sapiens)", 15.7],
  ["CC(C)(C)NC(=O)[C@@H](c1cccnc1)N(C(=O)c1ccco1)c1ccc(C(C)(C)C)cc1", "Cellular tumor antigen p53 (Homo sapiens)", 5],
  ["COC(=O)Nc1ccc(-c2nc(N3CCOCC3)c3cnn(C4CCN(Cc5cccnc5)CC4)c3n2)cc1", "Cellular tumor antigen p53 (Homo sapiens)", 9.82],
  ["Cn1ncc(S(=O)(=O)Cc2ccccc2)c(Br)c1=O", "Cellular tumor antigen p53 (Homo sapiens)", -32.8]
]}

###

study system: Cellular tumor antigen p53 (Homo sapiens)
assay explanation: Primary qHTS for small molecule compounds that upregulate eGFP-tagged delta133p53alpha (in N-terminal) cells. (AID 2060322);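 note: cells pre-induced with doxycycline then dosed without doxycycline; series mostly up to about 56 µM; 0% = DMSO vehicle and 100% = reference activator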
run parameters: NCI-H358 eGFP-delta133p53alpha fluorescence, 24 h; stronger effect = higher value
Results filed as inconclusive are left out.

{"columns": ["compound", "study system", "units label", "activation"],
 "data": [
  ["COC(=O)C1=COC(O[C@@H]2O[C@H](CO)[C@@H](O)[C@H](O)[C@H]2O)C2C(C)C(=O)CC12 (some centres undefined)", "Cellular tumor antigen p53 (Homo sapiens)", "%", -1.53],
  ["CN(C)CCN1C(=O)c2ccccc2N(C)c2ccccc21", "Cellular tumor antigen p53 (Homo sapiens)", "%", 7.34],
  ["Nc1nc2c(c(N3CCNCC3)n1)CCC1=C2[C@@H]2CCCC[C@@H]2O1", "Cellular tumor antigen p53 (Homo sapiens)", "%", -18.1],
  ["CCN(CC)CCOC(=O)c1cc(Cl)c(N)cc1OC", "Cellular tumor antigen p53 (Homo sapiens)", "%", -18.7],
  ["C=C1[C@H]2[C@H](O[C@@H]3O[C@H](COC(=O)/C=C/c4cc(OC)c(O)c(OC)c4)[C@@H](O)[C@H](O)[C@H]3O)OC=C(C(=O)O)[C@H]2C[C@@H]1O", "Cellular tumor antigen p53 (Homo sapiens)", "%", -10.7],
  ["CC(C)C[C@@H](N)[C@H](O)C(=O)N[C@H](C(=O)N[C@H](C(=O)N[C@@H](CC(=O)O)C(=O)O)C(C)C)C(C)C", "Cellular tumor antigen p53 (Homo sapiens)", "%", -3.94],
  ["CCOC(=O)C1=Cc2ccc(C(F)(F)C(F)(F)F)cc2N=C(N)C1", "Cellular tumor antigen p53 (Homo sapiens)", "%", -1.79],
  ["C[C@@H]1CC[C@H]2C(C)(C)[C@H](O)[C@H](O)C[C@]2(C)[C@@]12Cc1c(O)cc3c(c1O2)CNC3=O", "Cellular tumor antigen p53 (Homo sapiens)", "%", -3.82],
  ["CC(C)(O)/C=C/CC(C)(O)C1C(O)CC2(C)C3CCC4C(C)(C)C(=O)CCC4(C)C3CCC12C (centres undefined)", "Cellular tumor antigen p53 (Homo sapiens)", "%", 2.29],
  ["COc1cc(OC2CCN(C)CC2)ccc1Nc1ncc2c(n1)n(C1CCCC1)c(=O)n2C", "Cellular tumor antigen p53 (Homo sapiens)", "%", 2.88],
  ["COc1ccc(C(=O)O[C@H]2CC(C)=CC[C@@]3(C)[C@@H](OC(C)=O)C[C@@](O)(C(C)C)[C@H]23)cc1", "Cellular tumor antigen p53 (Homo sapiens)", "%", 1.79],
  ["CN(C)CCN(Cc1ccsc1)c1ccccn1", "Cellular tumor antigen p53 (Homo sapiens)", "%", -27.6],
  ["COc1cc([C@@H]2c3cc4c(cc3[C@H](O)C3COC(=O)[C@@H]32)OCO4)cc(OC)c1OC (some centres undefined)", "Cellular tumor antigen p53 (Homo sapiens)", "%", -47.3],
  ["CNC(=O)[C@H]1O[C@@H](n2cnc3c(NCc4cccc(I)c4)ncnc32)[C@H](O)[C@@H]1O", "Cellular tumor antigen p53 (Homo sapiens)", "%", -36.7],
  ["CS(=O)(=O)c1ccccc1N1CCN(c2nc3c(c(=O)[nH]2)CSCC3)CC1", "Cellular tumor antigen p53 (Homo sapiens)", "%", 11.5],
  ["O=S(=O)(Nc1ccccc1N1CCCCC1)c1ccc(Cl)s1", "Cellular tumor antigen p53 (Homo sapiens)", "%", -11.9],
  ["CC(C)(O)[C@H]1CC[C@@](C)([C@H]2[C@@H](O)C[C@@]3(C)[C@@H]4C[C@H](O[C@@H]5O[C@H](CO)[C@@H](O)[C@H](O)[C@@H]5O)[C@H]5C(C)(C)[C@@H](O[C@@H]6OC[C@@H](O)[C@H](O)[C@@H]6O)CC[C@@]56C[C@@]46CC[C@]23C)O1", "Cellular tumor antigen p53 (Homo sapiens)", "%", 10.3],
  ["COc1ccc(OC)c(-c2ccc(NC(=O)c3ccncc3F)cc2)c1", "Cellular tumor antigen p53 (Homo sapiens)", "%", -5.73],
  ["C=C(C(=O)O)C1CC(O)C2(C)CCCC(C)(O)C2C1 (centres undefined)", "Cellular tumor antigen p53 (Homo sapiens)", "%", 1.53]
]}

Recorded values, source PubChem BioAssay (NCATS).
